# targetSystem: Integrin alpha-4/beta-1 (Homo sapiens, UniProt P05556+P13612)
# Sequence (P05556 whole entry): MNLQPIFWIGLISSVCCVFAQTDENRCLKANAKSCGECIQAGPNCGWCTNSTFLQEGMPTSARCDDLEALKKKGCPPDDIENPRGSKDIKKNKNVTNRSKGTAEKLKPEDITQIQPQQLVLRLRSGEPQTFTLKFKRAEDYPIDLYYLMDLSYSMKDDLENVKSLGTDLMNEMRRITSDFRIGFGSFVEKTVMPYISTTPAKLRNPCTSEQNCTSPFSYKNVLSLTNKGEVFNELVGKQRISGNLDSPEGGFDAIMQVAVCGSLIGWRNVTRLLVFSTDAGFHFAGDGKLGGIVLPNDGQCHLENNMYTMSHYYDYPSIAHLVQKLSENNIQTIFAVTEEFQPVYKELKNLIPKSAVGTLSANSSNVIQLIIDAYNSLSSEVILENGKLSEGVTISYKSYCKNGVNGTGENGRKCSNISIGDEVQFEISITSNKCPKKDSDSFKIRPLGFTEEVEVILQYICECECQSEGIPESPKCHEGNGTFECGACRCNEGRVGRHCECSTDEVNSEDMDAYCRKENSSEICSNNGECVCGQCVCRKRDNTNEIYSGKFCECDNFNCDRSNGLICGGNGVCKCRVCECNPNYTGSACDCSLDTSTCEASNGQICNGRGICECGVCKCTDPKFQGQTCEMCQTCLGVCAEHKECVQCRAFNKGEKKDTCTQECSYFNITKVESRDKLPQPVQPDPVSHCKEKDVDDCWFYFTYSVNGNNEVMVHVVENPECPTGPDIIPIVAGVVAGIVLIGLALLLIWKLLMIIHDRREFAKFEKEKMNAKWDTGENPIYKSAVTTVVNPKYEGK
# Sequence (P13612 whole entry): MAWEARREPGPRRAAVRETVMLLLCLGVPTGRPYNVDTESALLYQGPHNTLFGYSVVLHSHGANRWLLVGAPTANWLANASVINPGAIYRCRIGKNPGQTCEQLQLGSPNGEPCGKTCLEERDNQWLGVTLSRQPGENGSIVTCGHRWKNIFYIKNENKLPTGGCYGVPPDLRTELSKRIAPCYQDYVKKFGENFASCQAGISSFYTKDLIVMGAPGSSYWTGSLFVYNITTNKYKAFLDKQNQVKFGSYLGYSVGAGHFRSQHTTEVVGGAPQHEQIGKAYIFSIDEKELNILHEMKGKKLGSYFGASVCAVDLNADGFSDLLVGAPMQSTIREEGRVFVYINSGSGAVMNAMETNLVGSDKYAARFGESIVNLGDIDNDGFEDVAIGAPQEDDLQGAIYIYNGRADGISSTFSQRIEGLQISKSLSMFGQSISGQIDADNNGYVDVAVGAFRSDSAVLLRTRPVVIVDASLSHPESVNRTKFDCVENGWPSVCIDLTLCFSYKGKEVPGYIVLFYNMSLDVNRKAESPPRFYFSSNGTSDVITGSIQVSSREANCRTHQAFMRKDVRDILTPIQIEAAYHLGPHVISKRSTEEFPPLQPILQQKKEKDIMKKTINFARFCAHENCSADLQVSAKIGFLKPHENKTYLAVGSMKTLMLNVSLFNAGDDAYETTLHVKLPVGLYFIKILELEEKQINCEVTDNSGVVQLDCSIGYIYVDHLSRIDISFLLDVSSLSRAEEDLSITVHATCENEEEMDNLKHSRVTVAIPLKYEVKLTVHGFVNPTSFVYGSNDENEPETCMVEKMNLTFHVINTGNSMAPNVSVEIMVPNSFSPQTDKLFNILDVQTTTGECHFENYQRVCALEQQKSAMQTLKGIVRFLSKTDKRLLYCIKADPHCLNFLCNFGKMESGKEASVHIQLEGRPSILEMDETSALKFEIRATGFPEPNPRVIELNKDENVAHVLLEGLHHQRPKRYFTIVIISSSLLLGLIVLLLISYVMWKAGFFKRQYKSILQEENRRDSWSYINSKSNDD
# methodNotes: Antagonistic activity against VLA-4 integrin of human jurkat cells using [125I]VCAM-Ig as radioligand
# Type: functional, cell-based
parameterMeasured: IC50 (µM)

• O=Cc1ccccc1-c1ccc(C[C@H](NC(=O)[C@@H]2CCCN2S(=O)(=O)c2cc(Cl)cc(Cl)c2)C(=O)O)cc1 = 0.00022
• COc1ccc(S(=O)(=O)N2Cc3ccccc3C[C@H]2C(=O)N[C@@H](CCCNC(=N)N)C(=O)O)cc1OC = 0.36
• CCCC[C@H](NC(=O)[C@@H]1CCCN1S(=O)(=O)c1ccc(OC)c(OC)c1)C(=O)O = 0.045
• Cc1ccccc1-c1ccc(C[C@H](NC(=O)[C@@H]2CCCN2S(=O)(=O)c2cc(Cl)cc(Cl)c2)C(=O)O)cc1 = 0.00143

---

# targetSystem: Integrin alpha-4/beta-1 (Homo sapiens, UniProt P05556+P13612)
# methodNotes: Antagonistic activity against VLA-4 integrin of human jurkat cells using [125I]VCAM-Ig as radioligand
# Type: functional, cell-based
pIC50: −log10 of the molar value.
Overview of recorded pIC50 for various compounds
parameterMeasured: pIC50

* CS(=O)(=O)c1ccccc1-c1ccc(C[C@H](NC(=O)[C@@H]2CCCN2S(=O)(=O)c2cc(Cl)cc(Cl)c2)C(=O)O)cc1 | 10.00
* C[C@@]1(C(=O)N[C@@H](Cc2ccc(-c3cc(C#N)ccc3F)cc2)C(=O)O)CCCN1S(=O)(=O)c1cc(Cl)cc(Cl)c1 | 9.00
* C[C@@]1(C(=O)N[C@@H](Cc2ccc(-c3nccs3)cc2)C(=O)O)CCCN1S(=O)(=O)c1cc(Cl)cc(Cl)c1 | 9.62
* C[C@@]1(C(=O)N[C@@H](Cc2ccc(-c3ccccc3C#N)cc2)C(=O)O)CCCN1S(=O)(=O)c1cc(Cl)cc(Cl)c1 | 9.04
* O=C(O)[C@H](Cc1ccc(-c2ccc(F)cc2)cc1)NC(=O)[C@@H]1CCCN1S(=O)(=O)c1cc(Cl)cc(Cl)c1 | 9.05
* O=C(O)[C@H](Cc1ccc(-c2ccccc2F)cc1)NC(=O)[C@@H]1CCCN1S(=O)(=O)c1cc(Cl)cc(Cl)c1 | 8.99
* COc1cccnc1-c1ccc(C[C@H](NC(=O)[C@]2(C)CCCN2S(=O)(=O)c2cc(Cl)cc(Cl)c2)C(=O)O)cc1 | 9.96
* O=Cc1cccc(-c2ccc(C[C@H](NC(=O)[C@@H]3CCCN3S(=O)(=O)c3cc(Cl)cc(Cl)c3)C(=O)O)cc2)c1 | 9.64
* COc1cccc(OC)c1-c1ccc(C[C@H](NC(=O)[C@]2(C)CCCN2S(=O)(=O)c2cc(Cl)cc(Cl)c2)C(=O)O)cc1 | 10.10
* CSc1ccccc1-c1ccc(C[C@H](NC(=O)[C@]2(C)CCCN2S(=O)(=O)c2cc(Cl)cc(Cl)c2)C(=O)O)cc1 | 9.19
* C[C@@]1(C(=O)N[C@@H](Cc2ccc(-c3ncccc3C#N)cc2)C(=O)O)CCCN1S(=O)(=O)c1cc(Cl)cc(Cl)c1 | 9.85
* CC(C)C(=O)Oc1cccc(OC(=O)C(C)C)c1-c1ccc(C[C@H](NC(=O)[C@]2(C)CCCN2S(=O)(=O)c2cc(Cl)cc(Cl)c2)C(=O)O)cc1 | 8.35
* C[C@@]1(C(=O)N[C@@H](Cc2ccc(-c3nc[nH]n3)cc2)C(=O)O)CCCN1S(=O)(=O)c1cc(Cl)cc(Cl)c1 | 9.28
* COc1cccc(C#N)c1-c1ccc(C[C@H](NC(=O)[C@]2(C)CCCN2S(=O)(=O)c2cc(Cl)cc(Cl)c2)C(=O)O)cc1 | 9.55
